- assay_method_text: Monkey PK
- Type: in vivo
- experimental_parameters: cynomolgus monkey, plasma; cynomolgus monkeys, single IV dose of 1 mg/kg; read-out: Vdss, IV, monkey (unit inferred)
- Protocol: Compounds S24-9-23 and S16-10-161 were evaluated in 3 non-naïve cynomolgus monkeys. Each animal received a single IV dose of 1 mg/kg and after a 7-day washout, received a single PO dose of 10 mg/kg. Nine to ten plasma samples were drawn for each dosing route up to 24 hours into heparin-coated vacutainer tubes. Dose formulations were verified with a 5-point calibration curve. The plasma concentration of the compound was quantified by LC/MS/MS using an internal standard.
quantity: Vd (L/kg)
Give bare numbers, in L/kg.

Ask: What does the record list as Vd for CN(C)c1c(CN2CCCCC2)cc(O)c2c1C[C@H]1C[C@H]3[C@H](N(C)C)C(O)=C(C(N)=O)C(=O)[C@@]3(O)C(O)=C1C2=O ?
Reply: 4.05

###

- assay_method_text: Monkey PK
- Assay type: in vivo
- experimental_parameters: cynomolgus monkey; cynomolgus monkeys, single PO dose of 10 mg/kg, plasma; read-out: AUC, oral, monkey
Can you tell me AUC for the items I'm about to list?
Answers are plain numbers, in ng·h/mL.

• CN(C)c1c(CN2CCCCC2)cc(O)c2c1C[C@H]1C[C@H]3[C@H](N(C)C)C(O)=C(C(N)=O)C(=O)[C@@]3(O)C(O)=C1C2=O [Compound S16-10-161] = 26000

Consider the additional molecule presented here.
Ask: What does the record list as AUC for COc1c(CN2CCCCC2)cc(O)c2c1C[C@H]1C[C@H]3[C@H](N(C)C)C(O)=C(C(N)=O)C(=O)[C@@]3(O)C(O)=C1C2=O [Compound S24-9-23] ?
Reply: 22800

###

- assay_method_text: Pharmacokinetic studies in rats
- Assay type: in vivo
- experimental_parameters: rat; male Sprague Dawley rats, fasted, oral gavage 10 mg/kg, plasma; read-out: AUC, Oral Rat PK
- Description: Pharmacokinetic Studies in Rats Test compounds were evaluated in fasted (no food for 18 hours prior to dosing) male Sprague Dawley rats (3 animals per group) by administration of 1 mg/kg intravenously into the jugular vein and […] by oral gavage. Ten plasma samples were drawn for each dosing route up to 24 hours into heparin-coated vacutainer tubes. The plasma concentrations of the test compounds were quantified by LC/MS/MS using an internal standards. […]
Can you tell me AUC for the items I'm about to list?
Answers are plain numbers, in ng·h/mL.

Below are worked cases with known answers.
- CN(C)[C@@H]1C(O)=C(C(N)=O)C(=O)[C@@]2(O)C(O)=C3C(=O)c4c(O)cc(CN5CCCC5(C)C)c(F)c4C[C@H]3C[C@@H]12: 1160
- CN(C)c1c(CN2CCCCC2)cc(O)c2c1C[C@H]1C[C@H]3[C@H](N(C)C)C(O)=C(C(N)=O)C(=O)[C@@]3(O)C(O)=C1C2=O: 4440

Ask: What does the record list as AUC for CN(C)[C@@H]1C(O)=C(C(N)=O)C(=O)[C@@]2(O)C(O)=C3C(=O)c4c(O)cc(CN(C)C(C)(C)C)c(F)c4C[C@H]3C[C@@H]12 ?
Reply: 826

###

- assay_method_text: Monkey PK
- Type: in vivo
- experimental_parameters: cynomolgus monkey, plasma; cynomolgus monkeys, single IV dose of 1 mg/kg; read-out: Cl, IV, monkey (printed C1, mL/hr) (converted)
quantity: clearance (mL/h)
Numbers only, in mL/h.

Ask: What does the record list as clearance for CN(C)c1c(CN2CCCCC2)cc(O)c2c1C[C@H]1C[C@H]3[C@H](N(C)C)C(O)=C(C(N)=O)C(=O)[C@@]3(O)C(O)=C1C2=O ?
Reply: 184
